- Test system: rNsp5-L50F/E166A/L167F
- Type: cell-based, SARS-CoV-2
- Condition Context: read-out: rNsp5-L50F/E166A/L167F EC50
Measurement Name: EC50 (µM)
Field format: number, assumed µM, no unit text.

For "CC(C)(C)[C@H](NC(=O)C(F)(F)F)C(=O)N1C[C@H]2[C@@H]([C@H]1C(=O)N[C@H](C#N)C[C@@H]1CCNC1=O)C2(C)C" the molecule record lists EC50 as 0.63

All figures here come from paper PMC11825904.
